Numbers sourced from PubChem BioAssay (NCI).

test system: SNB-75 CNS; assay: NCI tumour cell line growth inhibition, 48 h
A collection of compounds and their measured TGI

compound	TGI
COC1CCC(OC2CC(C3(C)CCC4(CC(O)C(C)C(C(C)/C=C(\C)C(=O)C(C)CC(C)C(=O)O)O4)O3)OC3(OC(C4OC(O)(CO)C(C)CC4C)CC3C)C2C)OC1C (stereo unspecified)	0.568 µM

Lab book: TGI of CN(C)Cc1cc(N=Nc2ccc(Cl)c(Cl)c2)ccc1O noted as 20.3 µM

Lab note: measured TGI of Cc1ccc(C)c(NC(=O)/C(=N\NC(N)=S)C(C#N)c2ccccc2)c1 (stereo unspecified) was > 100 µM

Documented TGI of CN(C)CCCOC(=O)C(O)(Cc1ccccc1)C1CC1 (stereo unspecified) : > 100 µM

GET /value?item= CCN(CC)C(=O)CCCCCCCCC1CO1 (stereo unspecified) &field=TGI returns > 100 µM

Note to self: TGI recorded for OC1CCC(C2C3CCCCC3C3CCCCC3C2C2CCC(O)CC2)CC1 (stereo unspecified) was 21.6 µM
